Where do these numbers come from? They come from paper PMC4156411.

Tested on: GI.8 VLP, major capsid protein (Human norovirus GI.8)
PROCEDURE SUMMARY: ELASA
CONDITION SUMMARY: ELASA: VLPs 3 ug/ml coated, blocked with 5% skim milk in PBST plus unrelated DNA, 1 uM biotinylated aptamer (10 nM-2 uM for Kd), 1 h at RT, PBST washes
PROPERTY LABEL: binding signal (T/N ratio)
Answer with a number only, understood to be in T/N ratio.

Recorded binding signal, per entry:
AGTATACGTATTACCTGCAGCTGACCGAGTGTCTGGTCATTTTCGATGTCTGTTGTTAGGCCGATATCTCGGAGATCTTGC [SMV-26]	1.2
AGTATACGTATTACCTGCAGCCATCTGTGTGAAGACTATATGGCGCTCACATATTTCTTTCCGATATCTCGGAGATCTTGC [SMV-25]	6.2
AGTATACGTATTACCTGCAGCCCATGTTTTGTAGGTGTAATAGGTCATGTTAGGGTTTCTGCGATATCTCGGAGATCTTGC [SMV-21]	4.6

Proceed to the following item.
Input line: Return reported binding signal; argument: AGTATACGTATTACCTGCAGCCACCAGTGTGTTGAGGTTTGAGCACACTGATAGAGTGTCACGATATCTCGGAGATCTTGC [SMV-19]
Output line: 1.7
